Ref: patent US12649746B2

- test details: Stability study of levorotatory enantiomer of compounds in solvent (MCT)
- Assay type: physicochemical
- assay conditions: dextrorotatory form, MCT solution, 25° C., Day 30
parameter: Isomer (%)

Below, each entry is followed by its recorded Isomer (%) result.
{"compound": "CCOC(=O)OC(CC)OC(=O)[C@H]1CCn2c(C(=O)c3ccccc3)ccc21 (stereo partly drawn) [N15(S)]", "value units": "%", "Isomer (%)": 4.64}
{"compound": "CCC(OC(=O)OC(C)C)OC(=O)[C@H]1CCn2c(C(=O)c3ccccc3)ccc21 (stereo partly drawn) [N16(S)]", "value units": "%", "Isomer (%)": 2.59}

[a] CCOC(=O)OC(C)OC(=O)[C@H]1CCn2c(C(=O)c3ccccc3)ccc21 (stereo partly drawn) [N12(S)]
[b] CC(C)OC(=O)OC(C)OC(=O)[C@H]1CCn2c(C(=O)c3ccccc3)ccc21 (stereo partly drawn) [N2(S)]
Between a and b , whose measured Isomer (%) reads higher? Pick one; state its label.
b
